target.under.test: T1, human TL1A extracellular domain with N-terminal HIS and FLAG tag (human, UniProt O95150 72-251)
T1 construct: the whole entry is named; also called TNFSF15
T1 sequence: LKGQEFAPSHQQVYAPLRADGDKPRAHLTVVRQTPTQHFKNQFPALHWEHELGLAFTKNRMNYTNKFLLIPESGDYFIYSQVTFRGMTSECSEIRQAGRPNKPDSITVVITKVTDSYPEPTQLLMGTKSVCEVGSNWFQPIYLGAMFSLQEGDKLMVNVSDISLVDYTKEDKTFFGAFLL
experiment.notes: SPR Run 7, antibody on Protein A, TL1A 5 ug/mL, timepoint 44
Listed here are binders together with their documented TL1A Binding Level (Early).
quantity.name: TL1A Binding Level (Early) (RU)

{"columns": ["binder", "experimental.result"],
 "data": [
  ["320-496 (antibody, human IgG1, name in Kabat numbering, V domains shown, full-length human IgG1, lambda) VH: QVQLVQSGAEVKKPGASVKVSCKASGYTFTSYDINWVRQAPGQGLEWMGWWNPNSGNTGYAQKFQGRVTMTADRSTSTAYMELSSLRSEDTAVYYCAREVPETAAFEYWGQGTLVTVSS VL: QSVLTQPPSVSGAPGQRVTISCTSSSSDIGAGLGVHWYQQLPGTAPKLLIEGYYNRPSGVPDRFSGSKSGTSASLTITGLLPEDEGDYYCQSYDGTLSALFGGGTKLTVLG", 93],
  ["320-517 (antibody, human IgG1, name in Kabat numbering, V domains shown, full-length human IgG1, lambda) VH: QVQLVQSGAEVKKPGASVKVSCKASGYTFTSYDINWVRQAPGQGLEWMGWLNPDSGNTGYAQKFQGRVTMTADRSTSTAYMELSSLRSEDTAVYYCAREVPETAAFEYWGQGTLVTVSS VL: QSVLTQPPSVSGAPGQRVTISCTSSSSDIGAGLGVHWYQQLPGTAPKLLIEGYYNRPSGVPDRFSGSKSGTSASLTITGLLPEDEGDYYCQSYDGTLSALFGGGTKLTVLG", 55],
  ["320-571 (antibody, human IgG1, name in Kabat numbering, V domains shown, full-length human IgG1, lambda) VH: QVQLVQSGAEVKKPGASVKVSCKASGYTFTSYDINWVRQAPGQGLEWMGWLNPNSGNTGKAQKFQGRVTMTADRSTSTAYMELSSLRSEDTAVYYCAREVPETAAFEYWGQGTLVTVSS VL: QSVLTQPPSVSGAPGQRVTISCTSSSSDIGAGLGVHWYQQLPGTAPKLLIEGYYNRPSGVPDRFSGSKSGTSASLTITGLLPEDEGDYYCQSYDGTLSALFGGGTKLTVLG", 78]
]}
